Tested on: T-47D breast
METHOD_NOTES: NCI-60 one-dose screen, 48 h (100 = growth as untreated, 0 = no growth, -100 = all killed)
EXPERIMENTAL_CONTEXT: 10 µM unless noted
About 83,000 compounds went through this panel and 20% of them were active in at least one assay; those are over-represented in the sample as a whole.

- SMILES_NOTATION: "CN1CCN=C1c1ccc(NC(=O)c2ccc(C(=O)Nc3ccc(C4=NCCN4C)cc3)cc2)cc1"
  growth [%]: 86.7
- SMILES_NOTATION: "O=C(CCCCC(=O)N/N=C\\c1ccccc1O)N/N=C\\c1ccccc1O"
  growth [%]: 35.5
- SMILES_NOTATION: "COc1ccc2[nH]cc(-c3noc(C(=O)c4cn(C)c5ccc(F)cc45)n3)c2c1"
  growth [%]: 83.8
- SMILES_NOTATION: "O=C(Cc1ccccc1Nc1c(Cl)cccc1Cl)NN1C(=O)/C(=C/c2ccc(Br)cc2)SC1=S"
  growth [%]: 107
- SMILES_NOTATION: "COc1cc(CNc2oc(-c3ccccc3)c(-c3ccccc3)c2C#N)cc(CN2CCN(C)CC2)c1O"
  growth [%]: 74
- SMILES_NOTATION: "FC(F)(F)c1ccc(-c2cn3nc(-c4c[nH]c5ccc(Br)cc45)sc3n2)cc1"
  growth [%]: 67.6
- SMILES_NOTATION: "COc1cccc(NC(=O)c2sc3nc(C)c(C(C)=O)cc3c2N)c1"
  growth [%]: 54
- SMILES_NOTATION: "COc1ccc(/C=C(\\C#N)C(=O)Nc2cccc(Nc3nc(SC)nc(-c4cccc([N+](=O)[O-])c4)c3C#N)c2)cc1OC"
  growth [%]: 87
- SMILES_NOTATION: "CCOC(=O)c1sc(Nc2ccc(Cl)cc2)nc1C"
  growth [%]: 6.67
